tested on: En-1; assay: En-1 mRNA expression by qPCR in primary ventral midbrain cultures; conditions: Mus musculus, 24 h, read-out: Fold Increase in En-1 Expression
Counter-ions that a name gives are not always drawn.
METRIC_NAME: fold induction at 10 µM

>>> recorded_measurement("CC(=O)c1ccc(S(=O)(=O)NC(=O)NC2CCCCC2)cc1 [Acetohexamide]")
2.3
>>> recorded_measurement("CC(=O)O[C@]1(C(C)=O)CC[C@H]2[C@@H]3C=C(C)C4=CC(=O)CC[C@]4(C)[C@H]3CC[C@@]21C [Megestrol acetate]")
2.14
>>> recorded_measurement("CNCC[C@H](Oc1cccc2ccccc12)c1cccs1 [Duloxetine hydrochloride]")
19
>>> recorded_measurement("C[N+]1(C)[C@@H]2C[C@@H](OC(=O)[C@H](CO)c3ccccc3)C[C@H]1[C@@H]1O[C@@H]12 [Methscopolamine bromide]")
1.9
>>> recorded_measurement("CCOC(=O)[C@H](CCc1ccccc1)N[C@@H](C)C(=O)N1[C@H](C(=O)O)C[C@H]2CCCC[C@@H]21")
17.9
>>> recorded_measurement("c1ccc(CC2=NCCN2)cc1 [Tolazoline hydrochloride]")
2.51
>>> recorded_measurement("CC(C)NCC(O)COc1cccc2[nH]ccc12 (centres unmarked)")
9.8
>>> recorded_measurement("c1ccc2c(c1)CCCC2C1=NCCN1 (centres unmarked) [Tetrahydrozoline hydrochloride]")
1.06
>>> recorded_measurement("CCC1(c2ccccc2)C(=O)NCNC1=O")
0.86
>>> recorded_measurement("COc1ccc2c(c1OC)C(=O)O[C@@H]2[C@H]1c2c(cc3c(c2OC)OCO3)CCN1C [Noscapine hydrochloride]")
1.83
>>> recorded_measurement("C#CCN(C)Cc1ccccc1 [Pargyline hydrochloride]")
1.73
>>> recorded_measurement("c1ccc2c(CC3=NCCN3)cccc2c1 [Naphazoline hydrochloride]")
8.95
>>> recorded_measurement("CC(=O)S[C@@H]1CC2=CC(=O)CC[C@]2(C)[C@H]2CC[C@@]3(C)[C@@H](CC[C@@]34CCC(=O)O4)[C@H]12")
1.34
>>> recorded_measurement("CC(N)C12CC3CC(CC(C3)C1)C2 (centres unmarked) [Rimantadine hydrochloride]")
1.3
>>> recorded_measurement("O=C1CC[C@@]2(O)[C@H]3Cc4ccc(O)c5c4[C@@]2(CCN3CC2CC2)[C@H]1O5 [Naltrexone hydrochloride]")
2.09
>>> recorded_measurement("CCCc1cc(=O)[nH]c(=S)[nH]1")
1.3
>>> recorded_measurement("CCN1CCCC1CNC(=O)c1cc(S(N)(=O)=O)ccc1OC (centres unmarked) [Sulpiride]")
1.4

---

Listed molecules paired with reported fold induction at 10 µM
system: En-1; experiment: En-1 mRNA expression by qPCR in primary ventral midbrain cultures; settings: Mus musculus, 24 h, read-out: Fold Increase in En-1 Expression
Where a name gives a salt, the structure may show the parent alone.
METRIC_NAME: fold induction at 10 µM

>>> recorded_measurement("O=C(O)c1ccccc1Nc1cccc(C(F)(F)F)c1")
2.6
>>> recorded_measurement("C[C@H]1C[C@@H]2[C@H]([C@@H](O)C[C@@]3(C)[C@H]2CC[C@]3(O)C(=O)CO)[C@@]2(C)C=CC(=O)C=C12")
1.38
>>> recorded_measurement("COc1ccccc1OCC(O)COC(N)=O (stereo not shown)")
1.83
>>> recorded_measurement("Cc1ccccc1C(OCCN(C)C)c1ccccc1 (stereo not shown) [Orphenadrine citrate]")
1.69
